- System: KM-20L2
- Assay info: NCI tumour cell line growth inhibition, 48 h
The source made the active and inactive calls. Rule as the data show it: active = GI50 up to about 1.1 µM and inactive = higher.
Please provide measured GI50 for the entries that follow.

Provide reported GI50 for each item, in the same order as listed.
1. Cc1c(N)nc(C2CC(=O)N2CC(N)C(N)=O)nc1C(=O)NC(C(=O)NC(C)C(O)C(C)C(=O)NC(C(=O)NCCc1nc(-c2nc(C(=O)NCCNCC(C)O)cs2)cs1)C(C)O)C(OC1OC(CO)C(O)C(O)C1OC1OC(CO)C(O)C(OC(N)=O)C1O)c1c[nH]cn1 (stereo not drawn)
2. C#Cc1ccccc1C(=O)OC

["58.6 µM (inactive)", "> 100 µM (inactive)"]

// for each compound below, give its GI50
1. O=C(/C=N/c1ccccc1[S-])c1ccco1.O=C(/C=N/c1ccccc1[S-])c1ccco1.[Zn+2]
2. COc1ccc(/C=C2\CN(C)Cc3c2nc(N)nc3-c2ccc(OC)cc2)cc1

1. 15.3 µM (inactive)
2. 82 µM (inactive)

Report GI50 for each item below.
1. CCOC(=O)C1C=C2O[C@@H]3OC4(CCCCC4)O[C@@H]3C2[C@H]2C(=O)C=CC(=O)[C@@]12C(=O)OC (stereo partly drawn)
2. CCSC(=O)N1c2ccc(OC)cc2C=CC1C#N (stereo not drawn)

14.5 µM (inactive)
< 0.01 µM (active)

For each of the compounds below, state GI50.
1. O=S(=O)(c1ccccc1)C1CN2OC1(S(=O)(=O)c1ccccc1)CC2c1ccc(Br)cc1 (stereo not drawn)
2. C/C(=N\NS(=O)(=O)c1ccc([N+](=O)[O-])cc1)c1ccc[n+]([O-])n1

1. > 100 µM (inactive)
2. 4.48 µM (inactive)

---

- Test system: LOX IMVI
- Assay info: NCI tumour cell line growth inhibition, 48 h
The source made the active and inactive calls. No stated cut-off is given here; in the data, active = GI50 up to about 1.1 µM and inactive = higher.
Would you mind answering with one of these outcomes? YES = active, NO = inactive

Look over these answered cases.
[
  {
    "Compound": "CO[C@H]1C=CO[C@@]2(C)Oc3c(C)c(O)c4c(O)c(c(CN5CCN(C)CC5)c(O)c4c3C2=O)NC(=O)/C(C)=C\\C=C[C@H](C)[C@H](O)C(C)[C@@H](O)C(C)[C@H](OC(C)=O)[C@@H]1C (some centres undefined)",
    "Class label": "NO"
  },
  {
    "Compound": "OCC(O)C(O)C(C=NNc1ncnc2ccc(Br)cc12)=NNc1ncnc2ccc(Br)cc12 (centres undefined)",
    "Class label": "YES"
  },
  {
    "Compound": "CN(C)CCCNc1c2ccccc2nc2cccc([N+](=O)[O-])c12",
    "Class label": "YES"
  }
]

Shift focus to the following entry.
Just curious, what result did `O=C(O)/C=C/C(=O)N1Cc2cc3ccccc3nc2C1` get here? NO

---

- System: HOP-62
- Assay info: NCI tumour cell line growth inhibition, 48 h
Calls of active or inactive are those of the source. Rule as the data show it: active = GI50 up to about 1.1 µM and inactive = higher.
Record form. Attribute: GI50. Fill in for each entry.

Check out these entries, answers already filled in.
[
  {
    "Molecule": "O=C1c2ccccc2C(=O)c2c1oc1cc(O)c(Cl)cc21",
    "GI50": "10.7 µM (inactive)"
  },
  {
    "Molecule": "CN(C)CCN(C)CC1COC(C)(C)O1 (stereo unspecified)",
    "GI50": "> 100 µM (inactive)"
  },
  {
    "Molecule": "OCC1OC(NCCNCCNC2OC(CO)C(O)C(O)C2O)C(O)C(O)C1O (stereo unspecified)",
    "GI50": "> 100 µM (inactive)"
  },
  {
    "Molecule": "N#CCCN(c1ccc(/C=N/c2ccccc2)cc1)S(=O)(=O)c1ccccc1",
    "GI50": "23.7 µM (inactive)"
  },
  {
    "Molecule": "C1CN(c2nc3c(nnc4nc(N5CCOCC5)sc43)s2)CCO1",
    "GI50": "> 100 µM (inactive)"
  }
]

Continue with the molecule presented below.
Give GI50 for `C[Si](C)(C)c1ccc(CC2(Cc3ccc([Si](C)(C)C)cc3)CCNC2)cc1` 2.94 µM (inactive)
